Values compiled from ChEMBL document CHEMBL1158369.

- System: Escherichia coli
- Experiment summary: Antibacterial activity against Escherichia coli after 24 hrs by tube dilution method
- Format: functional
Quantity name: -logMIC
// print number alone

Supply recorded -logMIC for "COc1ccc(C(=O)N/N=C/c2cccc([N+](=O)[O-])c2)cc1OC" here.
2.63

Supply recorded -logMIC for "COc1ccc(/C=N/NC(=O)c2ccc([N+](=O)[O-])cc2)cc1" here.
2.56

Supply recorded -logMIC for "COc1ccc(/C=N/NC(=O)c2ccccc2Br)cc1OC" here.
2.63

Supply recorded -logMIC for "O=C(N/N=C/c1cccc([N+](=O)[O-])c1)c1cc([N+](=O)[O-])ccc1Cl" here.
2.65

Supply recorded -logMIC for "COc1ccc(/C=N/NC(=O)c2cc([N+](=O)[O-])cc([N+](=O)[O-])c2)cc1OC" here.
2.68

Supply recorded -logMIC for "O=C(N/N=C/c1ccco1)c1cc([N+](=O)[O-])cc([N+](=O)[O-])c1" here.
2.47

Supply recorded -logMIC for "COc1ccc(/C=N/NC(=O)c2ccc(Cl)cc2)cc1OC" here.
2.61

Supply recorded -logMIC for "COc1ccc(C(=O)N/N=C/c2ccco2)cc1OC" here.
2.3

Supply recorded -logMIC for "COc1ccc(/C=N/NC(=O)c2ccc(N)cc2)cc1" here.
2.54

Supply recorded -logMIC for "O=C(N/N=C/c1cccc([N+](=O)[O-])c1)c1ccc([N+](=O)[O-])cc1" here.
2.61

---

- Experiment summary: Lipophilicity, log P of the compound
- Format: physicochemical
- Measurement conditions: octanol/water
Quantity name: logP

Supply recorded logP for "COc1ccc(/C=N/NC(=O)c2ccc(C)cc2)cc1OC" here.
3.39

Supply recorded logP for "Cc1ccc(C(=O)N/N=C/c2cccc([N+](=O)[O-])c2)cc1" here.
3.85

Supply recorded logP for "COc1ccc(/C=N/NC(=O)c2ccc([N+](=O)[O-])cc2)cc1" here.
3.13

Supply recorded logP for "COc1ccc(C(=O)N/N=C/c2ccco2)cc1OC" here.
1.87

Supply recorded logP for "O=C(N/N=C/c1cccc([N+](=O)[O-])c1)c1cc([N+](=O)[O-])ccc1Cl" here.
3.85

Supply recorded logP for "COc1ccc(/C=N/NC(=O)c2ccc(OC)c(OC)c2)cc1" here.
3.39

Supply recorded logP for "COc1ccc(/C=N/NC(=O)c2ccc(N)cc2)cc1OC" here.
2.14

Supply recorded logP for "COc1ccc(/C=N/NC(=O)c2cccc([N+](=O)[O-])c2)cc1OC" here.
2.87

Supply recorded logP for "COc1ccc(/C=N/NC(=O)c2ccccc2Br)cc1OC" here.
3.71

Supply recorded logP for "O=C(N/N=C/c1ccco1)c1cc([N+](=O)[O-])cc([N+](=O)[O-])c1" here.
2.28

Supply recorded logP for "COc1ccc(/C=N/NC(=O)c2cc([N+](=O)[O-])cc([N+](=O)[O-])c2)cc1OC" here.
2.83

---

- System: Escherichia coli
- Experiment summary: Antibacterial activity against Escherichia coli after 24 hrs by tube dilution method
- Format: functional
Quantity name: -logMIC
// print number alone

Supply recorded -logMIC for "COc1ccc(/C=N/NC(=O)c2ccc([N+](=O)[O-])cc2)cc1OC" here.
2.63

Supply recorded -logMIC for "COc1ccc(/C=N/NC(=O)c2ccc(OC)c(OC)c2)cc1" here.
2.58

Supply recorded -logMIC for "O=C(N/N=C/c1cccc([N+](=O)[O-])c1)c1cccc([N+](=O)[O-])c1" here.
2.61

Supply recorded -logMIC for "COc1ccc(/C=N/NC(=O)c2ccc(C)cc2)cc1" here.
2.54

Supply recorded -logMIC for "O=C(N/N=C/c1cccc([N+](=O)[O-])c1)c1ccc(Cl)cc1" here.
2.59

Supply recorded -logMIC for "O=C(N/N=C/c1cccc([N+](=O)[O-])c1)c1ccccc1Br" here.
2.49

Supply recorded -logMIC for "COc1ccc(/C=N/NC(=O)c2ccc(C)cc2)cc1OC" here.
2.58

Supply recorded -logMIC for CCn1cc(C(=O)O)c(=O)c2cc(F)c(N3CCNCC3)cc21 [NORFLOXACIN] here.
2.61

Supply recorded -logMIC for "COc1ccc(/C=N/NC(=O)c2cc([N+](=O)[O-])cc([N+](=O)[O-])c2)cc1" here.
2.64

Supply recorded -logMIC for "COc1ccc(/C=N/NC(=O)c2cccc([N+](=O)[O-])c2)cc1OC" here.
2.63

Supply recorded -logMIC for "COc1ccc(/C=N/NC(=O)c2ccc(N)cc2)cc1OC" here.
2.49

---

Please go through the items and note down their -logMIC.
- Tested on: Candida albicans
- Experiment summary: Antifungal activity against Candida albicans after 48 hrs by tube dilution method
- Assay type: functional
// print number alone

Supply recorded -logMIC for "O=C(N/N=C/c1cccc([N+](=O)[O-])c1)c1cccc([N+](=O)[O-])c1" here.
1.7

Supply recorded -logMIC for "COc1ccc(/C=N/NC(=O)c2cc([N+](=O)[O-])cc([N+](=O)[O-])c2)cc1OC" here.
1.78

Supply recorded -logMIC for "COc1ccc(C(=O)N/N=C/c2ccco2)cc1OC" here.
1.64

Supply recorded -logMIC for "COc1ccc(/C=N/NC(=O)c2ccccc2Br)cc1OC" here.
1.76

Supply recorded -logMIC for "OC(Cn1cncn1)(Cn1cncn1)c1ccc(F)cc1F" here.
2.64

Supply recorded -logMIC for "COc1ccc(/C=N/NC(=O)c2ccc(N)cc2)cc1" here.
1.63

Supply recorded -logMIC for "COc1ccc(/C=N/NC(=O)c2ccc(OC)c(OC)c2)cc1" here.
1.68

Supply recorded -logMIC for "O=C(N/N=C/c1ccco1)c1cc([N+](=O)[O-])cc([N+](=O)[O-])c1" here.
1.69

Supply recorded -logMIC for "O=C(N/N=C/c1cccc([N+](=O)[O-])c1)c1ccc(Cl)cc1" here.
1.69

Supply recorded -logMIC for "COc1ccc(/C=N/NC(=O)c2ccc(C)cc2)cc1OC" here.
1.68

Supply recorded -logMIC for "O=C(N/N=C/c1cccc([N+](=O)[O-])c1)c1cc([N+](=O)[O-])ccc1Cl" here.
1.75

Supply recorded -logMIC for "O=C(N/N=C/c1cccc([N+](=O)[O-])c1)c1ccccc1Br" here.
1.75

Supply recorded -logMIC for "COc1ccc(/C=N/NC(=O)c2ccc([N+](=O)[O-])cc2)cc1OC" here.
1.72

Supply recorded -logMIC for "COc1ccc(/C=N/NC(=O)c2cccc([N+](=O)[O-])c2)cc1OC" here.
1.64

Supply recorded -logMIC for "COc1ccc(/C=N/NC(=O)c2cc([N+](=O)[O-])cc([N+](=O)[O-])c2)cc1" here.
1.74

Supply recorded -logMIC for "COc1ccc(/C=N/NC(=O)c2ccc(OC)c(OC)c2)cc1OC" here.
1.74

Supply recorded -logMIC for "COc1ccc(/C=N/NC(=O)c2cc([N+](=O)[O-])ccc2Cl)cc1OC" here.
1.76

Supply recorded -logMIC for "COc1ccc(/C=N/NC(=O)c2ccc([N+](=O)[O-])cc2)cc1" here.
1.62

Supply recorded -logMIC for "O=C(N/N=C/c1cccc([N+](=O)[O-])c1)c1ccc([N+](=O)[O-])cc1" here.
1.7

Supply recorded -logMIC for "COc1ccc(/C=N/NC(=O)c2ccc(C)cc2)cc1" here.
1.63

Supply recorded -logMIC for "COc1ccc(/C=N/NC(=O)c2ccc(N)cc2)cc1OC" here.
1.68

Supply recorded -logMIC for "COc1ccc(/C=N/NC(=O)c2ccc(Cl)cc2)cc1OC" here.
1.71

Supply recorded -logMIC for "Cc1ccc(C(=O)N/N=C/c2cccc([N+](=O)[O-])c2)cc1" here.
1.59

Supply recorded -logMIC for "Nc1ccc(C(=O)N/N=C/c2cccc([N+](=O)[O-])c2)cc1" here.
1.66

Supply recorded -logMIC for "COc1ccc(C(=O)N/N=C/c2cccc([N+](=O)[O-])c2)cc1OC" here.
1.66

---

- Test system: Bacillus subtilis
- Experiment summary: Antibacterial activity against Bacillus subtilis after 24 hrs by tube dilution method
- Format: functional
Please go through the items and note down their -logMIC.
// print number alone

Supply recorded -logMIC for "O=C(N/N=C/c1cccc([N+](=O)[O-])c1)c1ccccc1Br" here.
2.65

Supply recorded -logMIC for "O=C(N/N=C/c1cccc([N+](=O)[O-])c1)c1ccc(Cl)cc1" here.
2.59

Supply recorded -logMIC for "O=C(N/N=C/c1cccc([N+](=O)[O-])c1)c1cc([N+](=O)[O-])ccc1Cl" here.
2.65

---

- Test system: Bacillus subtilis
- Experiment summary: Antibacterial activity against Bacillus subtilis after 24 hrs by tube dilution method
- Assay type: functional
Quantity name: -logMIC
// print number alone

Write -logMIC of "COc1ccc(/C=N/NC(=O)c2ccc(N)cc2)cc1OC" ; system used: Bacillus subtilis
2.29

Write -logMIC of "COc1ccc(/C=N/NC(=O)c2ccc(OC)c(OC)c2)cc1" ; system used: Bacillus subtilis
2.58

Write -logMIC of "COc1ccc(/C=N/NC(=O)c2cccc([N+](=O)[O-])c2)cc1OC" ; system used: Bacillus subtilis
2.28

Write -logMIC of "COc1ccc(/C=N/NC(=O)c2ccc(C)cc2)cc1OC" ; system used: Bacillus subtilis
2.58

Write -logMIC of "O=C(N/N=C/c1cccc([N+](=O)[O-])c1)c1ccc([N+](=O)[O-])cc1" ; system used: Bacillus subtilis
2.09

Write -logMIC of "CCn1cc(C(=O)O)c(=O)c2cc(F)c(N3CCNCC3)cc21" ; system used: Bacillus subtilis
2.61

Write -logMIC of "COc1ccc(/C=N/NC(=O)c2cc([N+](=O)[O-])cc([N+](=O)[O-])c2)cc1OC" ; system used: Bacillus subtilis
2.51

Write -logMIC of "COc1ccc(/C=N/NC(=O)c2ccc([N+](=O)[O-])cc2)cc1OC" ; system used: Bacillus subtilis
2.34

Write -logMIC of "Nc1ccc(C(=O)N/N=C/c2cccc([N+](=O)[O-])c2)cc1" ; system used: Bacillus subtilis
2.29

Write -logMIC of "Cc1ccc(C(=O)N/N=C/c2cccc([N+](=O)[O-])c2)cc1" ; system used: Bacillus subtilis
2.4

Write -logMIC of "COc1ccc(C(=O)N/N=C/c2ccco2)cc1OC" ; system used: Bacillus subtilis
1.98

Write -logMIC of "COc1ccc(/C=N/NC(=O)c2cc([N+](=O)[O-])cc([N+](=O)[O-])c2)cc1" ; system used: Bacillus subtilis
2.42

Write -logMIC of "COc1ccc(/C=N/NC(=O)c2ccccc2Br)cc1OC" ; system used: Bacillus subtilis
2.35

Write -logMIC of "COc1ccc(/C=N/NC(=O)c2ccc(OC)c(OC)c2)cc1OC" ; system used: Bacillus subtilis
2.34

Write -logMIC of "O=C(N/N=C/c1ccco1)c1cc([N+](=O)[O-])cc([N+](=O)[O-])c1" ; system used: Bacillus subtilis
2.29

Write -logMIC of "COc1ccc(C(=O)N/N=C/c2cccc([N+](=O)[O-])c2)cc1OC" ; system used: Bacillus subtilis
2.33

Write -logMIC of "COc1ccc(/C=N/NC(=O)c2cc([N+](=O)[O-])ccc2Cl)cc1OC" ; system used: Bacillus subtilis
2.62

Write -logMIC of "COc1ccc(/C=N/NC(=O)c2ccc([N+](=O)[O-])cc2)cc1" ; system used: Bacillus subtilis
2.25

Write -logMIC of "COc1ccc(/C=N/NC(=O)c2ccc(N)cc2)cc1" ; system used: Bacillus subtilis
2.24

Write -logMIC of "O=C(N/N=C/c1cccc([N+](=O)[O-])c1)c1cccc([N+](=O)[O-])c1" ; system used: Bacillus subtilis
2.3

Write -logMIC of "COc1ccc(/C=N/NC(=O)c2ccc(C)cc2)cc1" ; system used: Bacillus subtilis
2.32

Write -logMIC of "COc1ccc(/C=N/NC(=O)c2ccc(Cl)cc2)cc1OC" ; system used: Bacillus subtilis
2.61
